Source of measurements: ChEMBL document CHEMBL4842344

# Test system: MCF7
# ASSAY INFO: Antiproliferative activity against human MCF7 cells assessed as inhibition of cell growth measured after 48 hrs by MTT assay
# Type: functional, cell-based
# RECORDED CONDITIONS: MCF7, 48 h
pIC50: −log10 of the molar value.
# pIC50 per record follows
ENDPOINT LABEL: pIC50

                                query_smiles  endpoint_label  operator_symbol  number
 0  COc1ccc(NC(=O)c2cc3cc(OC)c(OCCCOc4no[n+]([O-])c4S(=O)(=O)c4ccccc4)cc3oc2=O)cc1           pIC50                =    6.39
 1  COc1cccc2c1C(=O)c1c(O)c3c(c(O)c1C2=O)C[C@@](O)(C(=O)CO)C[C@@H]3O[C@H]1C[C@H](N)[C@H](O)[C@H](C)O1           pIC50                =    6.29
 2  COc1cc2cc(C(=O)NCCCc3ccc(F)cc3)c(=O)oc2cc1OCCCOc1no[n+]([O-])c1S(=O)(=O)c1ccccc1           pIC50                =    6.22
 3  COc1cc2cc(C(=O)Nc3ccccc3)c(=O)oc2cc1OCCCOc1no[n+]([O-])c1S(=O)(=O)c1ccccc1           pIC50                =    6.13
 4  COc1cc2cc(C(=O)NCCc3ccc(F)cc3)c(=O)oc2cc1OCCCOc1no[n+]([O-])c1S(=O)(=O)c1ccccc1           pIC50                =    6.36
 5  COc1cc2cc(C(=O)NCc3ccccc3)c(=O)oc2cc1OCCCOc1no[n+]([O-])c1S(=O)(=O)c1ccccc1           pIC50                =    6.13
 6  COc1cc2cc(C(=O)NCc3ccc(F)cc3)c(=O)oc2cc1OCCCOc1no[n+]([O-])c1S(=O)(=O)c1ccccc1           pIC50                =    6.43
 7                     COc1cc2ccc(=O)oc2cc1O           pIC50                <    4.60
 8  COc1cc2cc(C(=O)Nc3ccc(F)cc3)c(=O)oc2cc1OCCCOc1no[n+]([O-])c1S(=O)(=O)c1ccccc1           pIC50                =    6.07
 9  COc1ccc(CCNC(=O)c2cc3cc(OC)c(OCCCOc4no[n+]([O-])c4S(=O)(=O)c4ccccc4)cc3oc2=O)cc1           pIC50                =    6.12
10  COc1cc2cc(N)c(=O)oc2cc1OCCCOc1no[n+]([O-])c1S(=O)(=O)c1ccccc1           pIC50                =    5.69
11  COc1cc2cc(C(=O)NCCc3ccccc3)c(=O)oc2cc1OCCCOc1no[n+]([O-])c1S(=O)(=O)c1ccccc1           pIC50                =    6.19
12  COc1ccc(CNC(=O)c2cc3cc(OC)c(OCCCOc4no[n+]([O-])c4S(=O)(=O)c4ccccc4)cc3oc2=O)cc1           pIC50                =    6.25
13  COc1cc2cc(C(=O)NCCCc3ccccc3)c(=O)oc2cc1OCCCOc1no[n+]([O-])c1S(=O)(=O)c1ccccc1           pIC50                =    6.06
